Consider the following molecules; for each one, report its Fold change.
Molecular target: varroa mite proctolin receptor (VdProctR) (Varroa destructor, UniProt A0A7T1TE40)
Sequence (A0A7T1TE40 1-530): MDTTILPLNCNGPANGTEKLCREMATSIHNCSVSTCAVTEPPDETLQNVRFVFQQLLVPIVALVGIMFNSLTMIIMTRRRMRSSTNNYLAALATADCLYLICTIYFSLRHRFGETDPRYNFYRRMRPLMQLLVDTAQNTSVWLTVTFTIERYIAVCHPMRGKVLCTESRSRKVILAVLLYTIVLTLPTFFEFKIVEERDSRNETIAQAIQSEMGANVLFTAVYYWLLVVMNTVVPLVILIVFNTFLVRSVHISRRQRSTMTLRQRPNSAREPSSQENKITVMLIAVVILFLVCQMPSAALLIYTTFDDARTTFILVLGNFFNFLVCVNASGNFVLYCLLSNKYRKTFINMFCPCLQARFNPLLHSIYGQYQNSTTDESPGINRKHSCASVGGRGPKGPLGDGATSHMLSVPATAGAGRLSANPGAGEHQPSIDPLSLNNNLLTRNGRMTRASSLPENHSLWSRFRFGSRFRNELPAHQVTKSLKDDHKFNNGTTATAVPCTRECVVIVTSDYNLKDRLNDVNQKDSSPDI
Experiment: Receptor activity assay: luminescence in cells transiently transfected with varroa mite proctolin receptor
Format: cell-based
Details: second set; EC50 relative to proctolin (14.19 nM)
Square brackets hold non-standard residues; d marks the D form. Peptide text beside a SMILES is read from it. Phe(4-Cl) = N[C@@H](Cc1ccc(Cl)cc1)C(=O)O; Phe(4-F) = N[C@@H](Cc1ccc(F)cc1)C(=O)O; Hyp = O=C(O)[C@@H]1C[C@@H](O)CN1

Challenge: Please give the measured Fold change for this molecule: CC(=O)N[C@@H](CCCNC(=N)N)C(=O)N[C@@H](Cc1ccc(Cl)cc1)C(=O)N[C@@H](CC(C)C)C(=O)N1C[C@H](O)C[C@H]1C(=O)N[C@H](C(=O)O)[C@@H](C)O [Ac-2443, Ac-R[Phe(4-Cl)]L[HyP]T] (Ac-R[Phe(4-Cl)]L[Hyp]T-OH)
Response given: 7.64

Challenge: Name the recorded Fold change for CC(C)C[C@H](NC(=O)[C@H](Cc1ccc(F)cc1)NC(=O)[C@@H](N)CCCNC(=N)N)C(=O)N1CCC[C@H]1C(=O)N[C@H](C(=O)O)[C@@H](C)O [Analog 2438, R[Phe(4-F)]LPT] (H-R[Phe(4-F)]LPT-OH) .
Response given: 0.53

Challenge: Give its Fold change value. Item: CC(C)C[C@H](NC(=O)[C@H](Cc1ccc(Cl)cc1)NC(=O)[C@@H](N)CCCNC(=N)N)C(=O)N1CCC[C@H]1C(=O)N[C@H](C(=O)O)[C@@H](C)O [Analog 2440, R[Phe(4-Cl)]LPT] (H-R[Phe(4-Cl)]LPT-OH)
Response given: 0.50

Challenge: Find the recorded Fold change belonging to CC(=O)N[C@@H](CCCNC(=N)N)C(=O)N[C@@H](Cc1ccc(F)cc1)C(=O)N[C@@H](CC(C)C)C(=O)N1C[C@H](O)C[C@H]1C(=O)N[C@H](C(=O)O)[C@@H](C)O [Ac-2441, Ac-R[Phe(4-F)]L[HyP]T] (Ac-R[Phe(4-F)]L[Hyp]T-OH) and report it.
Response given: 33.20

Challenge: Given CC(C)C[C@H](NC(=O)[C@H](Cc1ccc(F)cc1)NC(=O)[C@@H](N)CCCNC(=N)N)C(=O)N1C[C@H](O)C[C@H]1C(=O)N[C@H](C(=O)O)[C@@H](C)O [Analog 2441, R[Phe(4-F)]L[HyP]T] (H-R[Phe(4-F)]L[Hyp]T-OH; N-terminus and C-terminus assumed) , state its recorded Fold change.
Response given: 0.70

----------
Exercise: state measured EC50 for each of the substances provided.
Molecular target: varroa mite proctolin receptor (VdProctR) (Varroa destructor)
Sequence (A0A7T1TE40 1-530): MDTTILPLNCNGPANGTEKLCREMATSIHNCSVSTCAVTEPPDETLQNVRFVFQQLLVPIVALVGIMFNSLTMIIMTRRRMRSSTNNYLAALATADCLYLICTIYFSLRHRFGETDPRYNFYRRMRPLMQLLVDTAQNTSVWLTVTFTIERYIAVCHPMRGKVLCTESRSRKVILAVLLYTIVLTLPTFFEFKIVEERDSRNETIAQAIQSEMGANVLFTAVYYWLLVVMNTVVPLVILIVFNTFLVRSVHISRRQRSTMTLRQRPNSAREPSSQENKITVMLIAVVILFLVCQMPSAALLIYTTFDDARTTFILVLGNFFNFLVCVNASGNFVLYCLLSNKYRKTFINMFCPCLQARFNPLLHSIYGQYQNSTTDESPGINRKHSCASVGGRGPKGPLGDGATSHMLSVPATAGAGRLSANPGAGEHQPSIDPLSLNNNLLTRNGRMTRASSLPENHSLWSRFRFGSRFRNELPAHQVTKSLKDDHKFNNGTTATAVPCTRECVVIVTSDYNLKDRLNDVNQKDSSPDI
Test: Receptor activity assay: luminescence in cells transiently transfected with varroa mite proctolin receptor
Type: cell-based
Conditions: EC50 (nM), first set of experiments; varroa mite proctolin receptor
Ends that are not written are not given here.
Kindly answer with a numeric value in nM, unit omitted.

Challenge: Which value of EC50 has been reported for RYLPGT [Analog G5, RYLPGT] in the records?
Response given: 1160

Challenge: Endpoint output: EC50 of RYGLPT [Analog G3, RYGLPT] . Value?
Response given: 31400

Challenge: Entry RGYLPT [Analog G2, RGYLPT] : reported EC50 = ?
Response given: 15900

Challenge: // query EC50 value for entry RYLGPT [Analog G4, RYLGPT]
Response given: 1090

Challenge: Given the entry GRYLPT [Analog G1, GRYLPT] , report its measured EC50.
Response given: 30.9

Challenge: # EC50 lookup, item RYLPTG [Analog G6, RYLPTG]
Response given: 478

----------
Molecular target: varroa mite proctolin receptor (VdProctR) (Varroa destructor, UniProt A0A7T1TE40)
Sequence (A0A7T1TE40 1-530): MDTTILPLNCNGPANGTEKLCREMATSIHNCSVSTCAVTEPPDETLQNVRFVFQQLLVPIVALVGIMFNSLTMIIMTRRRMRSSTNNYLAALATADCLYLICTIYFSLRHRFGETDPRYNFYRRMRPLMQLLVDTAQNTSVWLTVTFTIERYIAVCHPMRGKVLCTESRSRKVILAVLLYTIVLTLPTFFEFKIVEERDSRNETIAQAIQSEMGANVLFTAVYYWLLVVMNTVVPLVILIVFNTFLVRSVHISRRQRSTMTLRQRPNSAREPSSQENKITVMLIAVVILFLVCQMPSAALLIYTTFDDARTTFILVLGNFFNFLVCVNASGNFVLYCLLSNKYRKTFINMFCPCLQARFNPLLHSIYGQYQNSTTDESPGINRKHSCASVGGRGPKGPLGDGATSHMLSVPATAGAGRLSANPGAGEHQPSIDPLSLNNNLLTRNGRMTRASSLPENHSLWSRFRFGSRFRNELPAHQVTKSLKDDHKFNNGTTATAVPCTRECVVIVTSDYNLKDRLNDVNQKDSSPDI
Assay: Receptor activity assay: luminescence in cells transiently transfected with varroa mite proctolin receptor
Assay type: cell-based
Settings: first set of experiments; EC50 relative to proctolin (0.22 nM)
Procedure: Approximately thirty hours after transfection, the cells were collected and preincubated with coelenterazine h for the functional assay. The ligands in serial dilutions were loaded into 96-well opaque plates. Cells treated with coelenterazine h were injected into each well on an Orion microplate luminometer (Berthold) luminescent plate reader. The luminescence was measured for 20 seconds immediately after the cell injections. […]
Square brackets hold non-standard residues; d marks the D form. Peptide text beside a SMILES is read from it. Oic = O=C(O)[C@@H]1C[C@@H]2CCCC[C@@H]2N1; β3hF = N[C@H](CC(=O)O)Cc1ccccc1; β3hP = O=C(O)C[C@@H]1CCCN1
property: Fold change

Challenge: Which measured Fold change value corresponds to CC(C)C[C@H](NC(=O)[C@H](Cc1ccc(O)cc1)NC(=O)[C@@H](N)CCCNC(=N)N)C(=O)N1CCC[C@H]1CC(=O)N[C@H](C(=O)O)[C@@H](C)O [Analog 2331, RYL[β3P]T] (H-RYL[β3hP]T-OH; N-terminus assumed) ?
Response given: 20.00

Challenge: Requested field: Fold change. Item: CC(C)C[C@H](NC(=O)[C@@H](Cc1ccc(O)cc1)NC(=O)[C@@H](N)CCCNC(=N)N)C(=O)N1[C@H](C(=O)N[C@H](C(=O)O)[C@@H](C)O)C[C@@H]2CCCC[C@@H]21 [Analog 2340, R[dY]L[Oic]T] (H-R[dY]L[Oic]T-OH; N-terminus assumed)
Response given: 1262.27

Challenge: For the molecule shown here, CC(C)C[C@H](NC(=O)[C@@H](Cc1ccc(O)cc1)NC(=O)[C@@H](N)CCCNC(=N)N)C(=O)N1CCC[C@H]1C(=O)N[C@H](C(=O)O)[C@@H](C)O [Analog 2329, R[dY]LPT] (H-R[dY]LPT-OH) , give the reported Fold change.
Response given: 672.27

Challenge: Item CC(C)C[C@H](NC(=O)C[C@H](Cc1ccccc1)NC(=O)[C@@H](N)CCCNC(=N)N)C(=O)N1CCC[C@H]1C(=O)N[C@H](C(=O)O)[C@@H](C)O [Analog 2333, R[β3F]LPT] (H-R[β3hF]LPT-OH) has what recorded Fold change?
Response given: 991.82
